Entries annotated with measured pKd
# target_entity: T1, recombinant canine β NGF (canine, UniProt Q29074 110-229 (pig entry))
# T1 construct: also called canine NGF
# T1 chain: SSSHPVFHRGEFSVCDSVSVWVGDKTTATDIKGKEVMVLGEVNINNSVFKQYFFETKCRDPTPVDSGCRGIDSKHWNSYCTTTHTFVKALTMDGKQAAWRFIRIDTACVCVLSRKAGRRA
# procedure_text: SPR (Biacore), mAb captured on goat anti-mouse IgG Fc, canine NGF injected; Expt 2
pKd: −log10 of the molar value.

Illustrative cases are given below, each with its answer.
- binder: "PR-1254980 (antibody, mouse IgG1, V domains shown, also called 23F1; ML129-23F1.4G3) VH: EVQLQQSGAELVKPGASVKLSCTASGFNIKDTYIYWVKQRPEQGLEWIGRIDPANGNTIYASKFQGKATITADTSSNTAYMQLSSLTSGDTAVYYCAGYGYYAYWGQGTTLTVSS VL: DVVLTQTPLSLPVNIGDQASISCKSTKSLLNGDGFTYLDWYLQKPGQSPQLLIYLVSNRFSGVPDRFSGSGSGTDFTLKISRVEAEDLGVYYCFESNYLFTFGSGTKLEMKR"
  result: "> 10.65"
- binder: "PR-1254973 (antibody, mouse IgG2b, V domains shown, also called 2B12; ML129-2B12.5G9) VH: QVQLQQPGAELVKPGASVKLSCKASGYTFTNYWMHWVKQRPGQGLEWIGRIDPYGGGTKHNEKFKRKATVTADKSSSTAYILLSSLTSEDSAVYYCTRSGYDYYFDVWGTGTTVTVSS VL: DIQMTQSPASLSASVGETVTVTCRASENIYSFLAWHQQKQGKSPQLLVYNANTLAEGVPSRFSGSGSGTQFSLKINSLQPEDFGSYYCQHHFGTPFTFGSGTKLEIKR"
  result: "> 10.86"
- binder: "PR-1254982 (antibody, mouse IgG1, V domains shown, also called 3F7; ML130-3F7.4A8) VH: QVQLKESGPGLVAPSQSLSITCTVSGFSLTGYNINWVRQPPGKGLEWLGMIWGYGDTDYNSALKSRLSISKDNSKSQVFLKMNSLQTDDTARYYCARDHYGGNDWYFDVWGTGTTVTVSS VL: DIQMTQTTSSLSASLGDRVTITCRASQDITNYLNWYQQKPDGTVKLLIYYTSRLHSGVPSRFSGSGSGTDYSLTISNLDQEDIATYFCQQGKTLPRTFGGGTKLEIKR"
  result: "> 13.00"
- binder: "PR-1254981 (antibody, mouse IgG1, V domains shown, also called 14A9; ML130-14A9.5B12) VH: EVQLVESGGGAVKPGGSLTLSCAASGFTFSNHYMYWVRQTPEKRLEWVASISDGGAYTFYPDTVKGRFTISRDNVNNNLYLQMRHLKSEDTAMYYCTREESANNGFAFWGQGTLVTVSA VL: DVLMTQTPLSLPVSLGDQASISCRSSQSILHSNGNTYLEWYLQKPGQSPNLLIYRVSNRFSGVPDRFSGSGSGTDFTLKISRVEAEDLGVYYCFQGAHVPFTFGSGTKLEIKR"
  result: 10.73

// query Could you share which pKd value was measured for PR-1254977 (antibody, mouse IgG1, V domains shown, also called 21D4; ML129-21D4.4A11) VH: EVQLQQSGAELVKPGASVKLSCTASGFNIKDTYIYWVKQRPEQGLEWIGRIDPANGNTIYASKFQGKASITADTSSNTAYMQLSSLTSGDTAVYYCAGYGYYAYWGQGTTLTVSS VL: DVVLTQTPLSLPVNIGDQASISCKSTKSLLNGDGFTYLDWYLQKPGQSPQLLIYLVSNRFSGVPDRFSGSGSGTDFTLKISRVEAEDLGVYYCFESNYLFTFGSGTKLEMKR ?
// result > 10.80

// query # pKd lookup, item PR-1254972 (antibody, mouse IgG2b, V domains shown, also called 20B10; ML129-20B10.3F4) VH: EVHLVESGGGLVKPGGFLILSCAASGFTFSDYYMFWIRQTPGKRLEWVATISDGGSYTYYTDNVKGRFTISRDNVKNNLYLQMSHLKSADTAMYYCARDWSDSEGFAYWGQGTLVTVSA VL: DVLMTQTPLSLPVSLGDQASISCRSSQSIVQSNGNTYLEWYLQKPGQSPKLLIYKVSNRFSGVPDRFSGSGSGTDFTLKISRVEAEDLGVYYCFQGSHVPFTFGSGTKLEIKR
// result > 9.49
